- Test system: DIV14
- MEASUREMENT NOTES: qHTS profiling for inhibitors of Plasmodium falciparum proliferation (AID 504749); further: nearly all actives have a fitted effect of over 60% in size
- CONDITION DESCRIPTION: P. falciparum in erythrocytes, SYBR Green DNA, 72 h; series mostly up to 28.7 µM
Inconclusive results are not listed. The source made the active and inactive calls. The call rests on the fitted dose curve; in most records, active means well fitted inhibition curve with a large enough effect; inconclusive means small, poorly fitted or top-dose-only effect; inactive means flat fitted curve, though single readings scatter.
In this exercise, the only acceptable responses are active, inactive

Example entries and their recorded answers appear below.
>>> group_label("CC12CCC(C1)C(C)(C)C2=O (stereo not given)")
"inactive"
>>> group_label("CCC(C)[C@@H](N)C(=O)O (stereo not given in full)")
"inactive"
>>> group_label("NC(=S)N=Nc1ccc(NN=C(N)N)cc1")
"active"
>>> group_label("CC(=O)Nc1ccc(OC(=O)c2ccccc2O)cc1")
"inactive"
>>> group_label("CC[C@H]1OC(=O)[C@H](C)[C@@H](O[C@H]2C[C@@](C)(OC)[C@@H](O)[C@H](C)O2)C(C)[C@@H](O[C@@H]2O[C@H](C)C[C@H](N(C)C)[C@@H]2O)[C@](C)(OC)C[C@@H](C)C(=O)[C@H](C)[C@@H](O)[C@]1(C)O (stereo not given in full)")
"inactive"
>>> group_label("NC(=O)[C@@H]1CCCN1C(=O)[C@H](Cc1cnc[nH]1)NC(=O)[C@@H]1CCC(=O)N1")
"inactive"

Test call, this compound: CSCCC(N)C(=O)O (stereo not given)
inactive

Test call, this compound: O=C1NCCN1c1ncc([N+](=O)[O-])s1
inactive

Test call, this compound: CC(C)CCC[C@@H](C)[C@H]1CC[C@H]2[C@@H]3CC[C@@H]4C[C@H](O)CC[C@]4(C)[C@H]3CC[C@]12C
inactive

Test call, this compound: CCOC(=O)[C@@H](N)CS
inactive

----------
- Test system: astro
- MEASUREMENT NOTES: Drug repurposing screens with cells derived from glioblastoma tumor samples (AID 1345199); further: nearly all actives have a fitted effect of over 40% in size
- CONDITION DESCRIPTION: viability, ATP luminescence, 48 h; series mostly up to 45.9 µM
Results filed as inconclusive are left out. Activity calls are given as the source filed them. Calls follow the shape of the dose curve; as a rule, active = well fitted inhibition curve with a large enough effect; inconclusive = small, poorly fitted or top-dose-only effect; inactive = flat fitted curve, though single readings scatter.
In this exercise, the only acceptable responses are True (active), False (inactive)

Example entries and their recorded answers appear below.
>>> group_label("CCOC(C)OCC")
"False"
>>> group_label("C[C@]12CCC(=O)C[C@@H]1CC[C@@H]1[C@@H]2CC[C@]2(C)C=CC[C@@H]12")
"False"
>>> group_label("S=C1SCN(Cc2ccccc2)CN1Cc1ccccc1")
"False"

Test call, this compound: CC[C@H]1OC(=O)[C@H](C)[C@@H](O[C@H]2C[C@@](C)(OC)[C@@H](O)[C@H](C)O2)[C@H](C)[C@@H](O[C@@H]2O[C@H](C)C[C@H](N(C)C)[C@H]2O)[C@](C)(O)C[C@@H](C)CN(C)[C@H](C)[C@@H](O)[C@]1(C)O
False

Test call, this compound: C=CCOc1ccc(CC(=O)O)cc1Cl
False

Test call, this compound: Cc1ccc(S(=O)(=O)NCl)cc1
False

Test call, this compound: CC(=O)N=c1sc(S(N)(=O)=O)nn1C
False

Test call, this compound: CC[C@@H](C(=O)[C@@H](C)[C@@H](O)[C@H](C)[C@@H]1O[C@@H]([C@@H](CC)C(=O)O)CC[C@@H]1C)[C@H]1O[C@]2(C=C[C@@H](O)[C@]3(CC[C@@](C)([C@H]4CC[C@](O)(CC)[C@H](C)O4)O3)O2)[C@H](C)C[C@@H]1C
True

----------
- MEASUREMENT NOTES: Drug repurposing screens with cells derived from glioblastoma tumor samples (AID 1345199); further: nearly all actives have a fitted effect of over 40% in size; on activity, negative = cell killing: on the % scale 0 is the no-effect control and ±100 the full control effect
- CONDITION DESCRIPTION: GBM patient neurospheres viability, ATP luminescence, 48 h; at 20 µM (top of the series); tumour line C
Results filed as inconclusive are left out. Where a SMILES comes first, the peptide text is derived from it. Bridges are numbered along the chain shown (N, C = ends). [ ]: non-standard residue; d: D form. The star is where a group is joined. X2 = CC[C@H](C)CCCCC(=O)*; Dab = NCC[C@H](N)C(=O)O
Assignment: determine reported activity, negative = cell killing for the given compounds.
Answers are plain numbers, in %.

Consider the reported activity, negative = cell killing for these compounds:
>>> obs_value("CC(C)(C)NC[C@H](O)COc1ccccc1C1CCCC1")
19
>>> obs_value("COc1ccc([C@@H]2CC(=O)c3c(O)cc(O[C@@H]4O[C@H](CO[C@@H]5O[C@@H](C)[C@H](O)[C@@H](O)[C@H]5O)[C@@H](O)[C@H](O)[C@H]4O)cc3O2)cc1O")
-7.12

Would you be so kind as to report activity, negative = cell killing for each listed record?
1. NC(=O)c1ccc[n+]([C@@H]2O[C@H](COP(=O)([O-])OP(=O)(O)OC[C@H]3O[C@@H](n4cnc5c(N)ncnc54)[C@H](O)[C@@H]3O)[C@@H](O)[C@H]2O)c1
2. C[C@@H]1NC(=O)[C@@H](N)CNC(=O)[C@H](C2CCNC(N)=N2)NC(=O)/C(=C/NC(N)=O)NC(=O)[C@H](CNC(=O)C[C@@H](N)CCCN)NC1=O (some centres undefined)
3. CCCC1C(=O)N2C(N(C)C)=Nc3ccc(C)cc3N2C1=O (centres undefined)
4. CC(C)(O/N=C(\C(=O)N[C@@H]1C(=O)N2C(C(=O)[O-])=C(C[n+]3ccccc3)CS[C@H]12)c1csc(N)n1)C(=O)O
5. CC[C@H](C)CCCCC(=O)N[C@@H](CCN)C(=O)N[C@H](C(=O)N[C@@H](CCN)C(=O)N[C@H]1CCNC(=O)[C@@H]([C@H](C)O)NC(=O)[C@H](CCN)NC(=O)[C@H](CCN)NC(=O)[C@H](CC(C)C)NC(=O)[C@@H](CC(C)C)NC(=O)[C@H](CCN)NC1=O)[C@@H](C)O (X2-[Dab]T[Dab][Dab][Dab][dL]L[Dab][Dab][dT]; lactam 4-C)
6. CC(=O)Oc1cc(C(F)(F)F)ccc1C(=O)O

1. -16.9
2. 24.6
3. -0.417
4. -8.81
5. 7.06
6. -16.9

Would you be so kind as to report activity, negative = cell killing for each listed record?
1. NC(=O)c1cc[n+](CC2=C(C(=O)O)N3C(=O)[C@@H](NC(=O)C(c4ccccc4)S(=O)(=O)[O-])[C@H]3SC2)cc1 (some centres undefined)
2. C=CC[N@@+]12CC[C@@]34c5ccccc5N5/C=C6/[C@H]7C[C@H]8[C@@]9(CC[N@@+]8(CC=C)C/C7=C/CO)c7ccccc7N(/C=C(/[C@@H](C[C@@H]31)/C(=C\CO)C2)[C@H]54)[C@@H]69
3. CN1CCc2c(c3ccccc3n2Cc2ccccc2)C1
4. O=C1NCCN1c1ncc([N+](=O)[O-])s1
5. CNCC(O)c1ccc(OC(=O)C(C)(C)C)c(OC(=O)C(C)(C)C)c1 (centres undefined)
6. NC[C@H]1O[C@H](O[C@H]2[C@H](O)[C@@H](O[C@H]3O[C@H](CO)[C@@H](O)[C@H](N)[C@H]3O)[C@H](N)C[C@@H]2N)[C@H](N)C[C@@H]1O

1: 7.27; 2: -3.52; 3: -5.19; 4: -26.4; 5: 5.42; 6: 1.26

----------
- ASSAY TARGET: Cytochrome P450 2C9 (Homo sapiens) (UniProt P11712)
- Sequence (P11712 whole entry, looked up): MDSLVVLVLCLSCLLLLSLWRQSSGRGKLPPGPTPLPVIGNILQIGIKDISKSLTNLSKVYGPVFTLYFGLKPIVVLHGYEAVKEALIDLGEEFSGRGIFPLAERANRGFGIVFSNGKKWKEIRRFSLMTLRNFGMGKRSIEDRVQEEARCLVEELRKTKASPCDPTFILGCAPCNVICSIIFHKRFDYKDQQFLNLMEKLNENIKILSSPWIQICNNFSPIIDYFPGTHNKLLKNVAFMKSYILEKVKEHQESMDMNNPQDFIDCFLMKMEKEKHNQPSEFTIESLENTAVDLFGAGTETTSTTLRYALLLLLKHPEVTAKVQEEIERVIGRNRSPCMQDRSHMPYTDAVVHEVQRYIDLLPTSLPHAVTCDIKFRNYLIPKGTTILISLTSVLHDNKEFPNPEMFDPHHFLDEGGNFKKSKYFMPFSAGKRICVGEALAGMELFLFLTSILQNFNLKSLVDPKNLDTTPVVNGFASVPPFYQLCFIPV
- MEASUREMENT NOTES: Cytochrome P450 family 2 subfamily C member 9 (CYP2C9) small molecule antagonists: luciferase biochemical (cell-free) qHTS assay (AID 1645842); further: nearly all actives have a fitted effect of over 55% in size; further: potency means the concentration at half of the fitted maximal effect
- CONDITION DESCRIPTION: P450-Glo CYP2C9 enzyme assay, luciferin luminescence; series mostly up to 57.4 µM
Inconclusive results are not listed. The source made the active and inactive calls. Calls come from the whole dose curve; as a rule, active = well fitted inhibition curve with a large enough effect in the repeat runs; inconclusive = weak or mixed curves; inactive = no such curve, though single readings can be large or run the other way.
OBSERVATION TYPE: Potency

>>> obs_value("Cc1ncc(C[n+]2csc(CCO)c2C)c(N)n1")
"inactive"
>>> obs_value("CC(=O)Oc1cccc2c1C(=O)c1c(OC(C)=O)cc(C(=O)O)cc1C2=O")
"inactive"
>>> obs_value("CC(=O)NCCCS(=O)(=O)O")
"inactive"
>>> obs_value("Cc1c(C)c2c(c(C)c1OC(=O)CCC(=O)O)CC[C@@](C)(CCC[C@H](C)CCC[C@H](C)CCCC(C)C)O2")
"21.3 µM (active)"
>>> obs_value("CC(C)=CCC/C(C)=C/CC/C(C)=C/CC/C(C)=C/CC1=C(C)C(=O)c2ccccc2C1=O")
"8.49 µM (active)"

Would you be so kind as to report Potency for each listed record?
1. CCOC(=O)[C@@H](N)CS
2. C[C@H](CCCC(C)(C)O)[C@H]1CC[C@H]2[C@@H]3CC=C4C[C@@H](O)CC[C@]4(C)[C@H]3CC[C@]12C
3. OCCOCCOCCO
4. C=C1[C@H](CO)[C@@H](O)C[C@@H]1n1cnc2c(=O)[nH]c(N)nc21
5. O=C1CCC(=O)N1CO

1: 10.7 µM (active); 2: inactive; 3: inactive; 4: inactive; 5: inactive

Briefly, Potency measured for c1ccc(-n2cnnn2)cc1 : inactive
